Test: label from the status in PepcDB records;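 also: failed if final PepcDB status was selected cloned or expressed and not failed if soluble or beyond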
Measured Parameter: protein production

// known answers, use as guide
1. MRYAAVLVEVGGTHRCLPLDSDGDLNIVASFDRRGKHIYTGNAKGKILVLDAETFEVVASFRIIVGTSSATAVKSIEFARRGDAFLINTSDRVIRVYDSKEIIILGKDGEPEPIQKLQDLVNKTTWKKCCFSGDGEYICAGSARQHALYIWEKSIGNLVKILHGTKGELHKQKRIRSFLERLAKDVPRIKNHLTLPNRFLFSSYRYYIRTI : failed
2. MSKVFVNISLSLDGFMAPEGMDMAHFSDPTYKNWGAKWGALMAWALSQQYLREKLKLGTGGETGPVNDMVRHTFERTGAHIMGKRMFEGGERGWPEEAPFHTPVYVLTHERRNPWVRPGGTTFYFVNDGPEQALALAREAAGERDIRISGGANVIQQYLNLGLVDELEIALIPVIFGGGRRLFENLHEPLPQFRIDRVLASPTATHLRYVRL : not failed
3. MTLAPRHLRIEQRGRVLQVLLDNPPANFLTTAVMQELADLLEDLEQRQDIGAVILSGAADGVFLTHFDVDEIERAVAPITFSMPAWLTRLLLESESLLRHLPGARKLLRRTLLAGVADMNLFHEVTAHMRRMDKVFIAAINGLALGGGCELALACDLRLMAEDDQVERFLGQPEVLIGLIPGGGGTQMLARSLGVARALELCLEGQLLEPRQALALGLVNGLAPAEELLEAADALAQRLSRRSPQAVRLIKRSIYQAASRDWTEGMASEKAGFLSAASQGNTRRAMREYIERVRTITREERPFRRADFDDLTEGNAID : failed
4. MTEIATIEKPAQHGATTRLIDIVFPGDTNHHGTLFGGTGLALMDRVAFIAATRFGRTPFVTASCERIDFRQPARIGHIVEFTARPVKAGRRSLTVEVEMVAETIIGRQQHTCTRGIFHMVAIPEGEDAASYVLPELLTEETPDPSDAVTMVEIVFPDQANSAGRMFGGEAIAYMTKAAFVAASRYCGKLVVLASSERIDFARAIEIGEIVEAQAHVERVGRSSMSIQTKLWSENLLTGERHITATGHFTMVAVDKDHRPATIRDPAEAFSLEKGGA : not failed
5. MSMNNSKQLVSPAAALLSNTTCQTENRLSVFFSVIFMTVGILSNSLAIAILMKAYQRFRQKSKASFLLLASGLVITDFFGHLINGAIAVFVYASDKEWIRFDQSNVLCSIFGICMVFSGLCPLLLGSVMAIERCIGVTKPIFHSTKITSKHVKMMLSGVCLFAVFIALLPILGHRDYKIQASRTWCFYNTEDIKDWEDRFYLLLFSFLGLLALGVSLLCNAITGITLLRVKFKSQQHRQGRSHHLEMVIQLLAIMCVSCICWSPFLGYRIILNGKEKYKVYEEQSDFLHRLQWPTLE : failed
6. MGPKRRQLTFREKSRIIQEVEENPDLRKGEIARRFNIPPSTLSTILKNKRAILASERKYGVASTCRKTNKLSPYDKLEGLLIAWFQQIRAAGLPVKGIILKEKALRIAEELGMDDFTASNGWLDRFRRRRS : not failed

Next sequence, please.
sequence "IEVKQLEFPAFKVEIQKWLHFHINWQNDMDYIEKTNHTFYGAYVDNDLKGSICINEQGKISFIFIDKEYRNRGIGSKLLQVARDELNLESLLISFPNNSLLEGFLKKTGFEKNSLAQYEMYVLL" , protein production observed: failed
